// provenance: patent US5665586A

Assayed system: SFase (Streptomyces fradiae, UniProt Q03424)
Sequence (Q03424 171-357): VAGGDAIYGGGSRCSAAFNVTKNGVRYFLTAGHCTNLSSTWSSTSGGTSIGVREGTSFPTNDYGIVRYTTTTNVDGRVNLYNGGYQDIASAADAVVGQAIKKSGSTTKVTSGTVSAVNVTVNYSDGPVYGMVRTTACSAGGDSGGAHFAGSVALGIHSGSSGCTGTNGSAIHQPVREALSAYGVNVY
Test summary: Substrate specificity of SFase on synthetic pNA substrates (p-nitroaniline release, A410 nm)
Assay type: biochemical
Condition details: substrate 0.20 mM, DMF 2.0%; 50 mM Tris-HCl, 2 mM CaCl2, pH 7.5, 25° C.
Where a SMILES comes first, the peptide text is derived from it. The star is where a group is joined. pNA = O=[N+]([O-])c1ccc(N*)cc1; Cbz = O=C(OCc1ccccc1)*; Boc = CC(C)(C)OC(=O)*
I'd be grateful if you could share measured amount (A410 nm) of p-nitroaniline released per mg per 1 minute for these entries.
# value in A 410 nm /mg/min; strip the unit string

Query string: Consider the compound shown here: O=C(N[C@@H](Cc1c[nH]c2ccccc12)C(=O)Nc1ccc([N+](=O)[O-])cc1)OCc1ccccc1 [Z--Trp--pNA] What is its recorded amount (A410 nm) of p-nitroaniline released per mg per 1 minute?
Result string: 0

Query string: // same read-out, input: C[C@H](NC(=O)OC(C)(C)C)C(=O)N[C@@H](C)C(=O)N[C@@H](CCC(=O)O)C(=O)Nc1ccc([N+](=O)[O-])cc1 [Boc--Ala--Ala--Glu--pNA] (Boc-Ala-Ala-Glu-pNA)
Result string: 126.2

Query string: Now give it for C[C@H](NC(=O)OC(C)(C)C)C(=O)N[C@@H](C)C(=O)N[C@@H](CC(=O)O)C(=O)Nc1ccc([N+](=O)[O-])cc1 [Boc--Ala--Ala--Asp--pNA] (Boc-Ala-Ala-Asp-pNA) too.
Result string: 14.3

Query string: Same again, this time with O=C(CNC(=O)OCc1ccccc1)N[C@@H](CO)C(=O)Nc1ccc([N+](=O)[O-])cc1 [Z--Gly--Ser--pNA] (Cbz-Gly-Ser-pNA)
Result string: 0
